MIC tested on E. coli ATCC 11775: recorded values
Answers are plain numbers, in mg/L.

• Cn1nnnc1SCC1=C(C(=O)O)N2C(=O)[C@@H](NC(=O)C(NC(=O)Nc3cnc(NCc4ccco4)nc3O)c3csc(N)n3)[C@H]2SC1 (stereo partly drawn) [Compound 1] = 0.03
• CO/N=C(\C(=O)N[C@@H]1C(=O)N2C(C(=O)O)=C(COC(N)=O)CS[C@H]12)c1ccco1 [Cefuroxim, reference compound] = 8
• Cn1nnnc1SCC1=C(C(=O)O)N2C(=O)[C@@H](NC(=O)C(NC(=O)Nc3cnc(NCc4ccc(S(N)(=O)=O)s4)nc3O)c3csc(N)n3)[C@H]2SC1 (stereo partly drawn) [Compound 4] = 0.01

Please state MIC for every compound in the list that follows.
1. CO[C@@]1(NC(=O)C(NC(=O)Nc2cnc(NCc3ccco3)nc2O)c2ccccc2)C(=O)N2C(C(=O)O)=C(CSc3nnnn3C)CS[C@@H]21 (stereo partly drawn) [Compound 14]
2. CO[C@@]1(NC(=O)C(NC(=O)Nc2cnc(NCc3ccc(S(N)(=O)=O)s3)nc2O)c2ccccc2)C(=O)N2C(C(=O)O)=C(CSc3nnnn3C)CS[C@@H]21 (stereo partly drawn) [Compound 11]

Result ::
1. 0.12
2. 0.12
